Test system: SK-MEL-5 melanoma
Method Notes: NCI-60 one-dose screen, 48 h (100 = growth as untreated, 0 = no growth, -100 = all killed)
Condition Parameters: 10 µM unless noted
The panel holds about 83,000 compounds, 20% with a hit somewhere; the sample as a whole holds those more often.
Metric Name: growth (%)
Write the number in % without appending the unit.

Give the measured growth of CCN1C(=O)N(CC)C2C1N=C(SCc1ccc(Cl)cc1)N2/N=C/C=C/c1ccccc1OC (stereo not given) .
44.2

Name the reported growth value associated with the compound `O=C(O)COc1ccc(Cl)c(Cl)c1`
105

Please give the measured growth for this compound: `COc1cc(C(=O)n2nc(N3CCOCC3)c3cc(-n4cccc4)ccc32)cc(OC)c1OC`
64.3

growth for `Clc1ccccc1-c1cnn2cc(-c3ccccc3)cnc12` ?
93.2

Name the recorded growth for Nc1nc(N)c2c(n1)NC(c1cccc(Nc3ccnc4cc(C(F)(F)F)ccc34)c1)CC(c1ccccc1)=N2 (stereo not given) .
21.9
